test: Selectivity index, ratio of EC50 for cytotoxicity against human IMR90 cells to EC50 for anti-parasitic activity against Leishmania amazonensis promastigotes; format: toxicity, cell-based; conditions: read-out: Ratio EC50
The reader will find reported selectivity ratio values listed item by item below.
READOUT_NAME: selectivity ratio

>>> result("N=C1CCN(S(=O)(=O)c2ccc(NC(=O)c3ccc([N+](=O)[O-])o3)cc2)CC1")
"> 2"
>>> result("O=C(Nc1ccc(S(=O)(=O)N2CCOCC2)cc1)c1ccc([N+](=O)[O-])o1")
"> 8"
>>> result("O=C(Nc1ccc(S(=O)(=O)N2CCCCC2)cc1)c1ccc([N+](=O)[O-])o1")
"> 2"
>>> result("O=C(Nc1ccc(S(=O)(=O)N2CCC3(CCCCC3)CC2)cc1)c1ccc([N+](=O)[O-])s1")
"> 250"
>>> result("CC1(C)CCN(S(=O)(=O)c2ccc(NC(=O)c3ccc([N+](=O)[O-])o3)cc2)CC1")
"> 89"
>>> result("CC(C)(C)C1CCN(S(=O)(=O)c2ccc(NC(=O)c3ccc([N+](=O)[O-])s3)cc2)CC1")
"> 250"
>>> result("O=C(Nc1cccc(S(=O)(=O)N2CCOCC2)c1)c1ccc([N+](=O)[O-])o1")
"> 28"
>>> result("CC(C)(C)C1CCN(S(=O)(=O)c2ccc(NC(=O)c3ccc([N+](=O)[O-])o3)cc2)CC1")
"> 18"
>>> result("O=C(Nc1ccc(S(=O)(=O)N2CCOCC2)cc1)c1ccc([N+](=O)[O-])s1")
"> 19"
>>> result("O=C(Nc1ccc(S(=O)(=O)N2CCC(F)CC2)cc1)c1ccc([N+](=O)[O-])o1")
"> 3"
